Data origin: PubChem BioAssay

We begin with a simple list: items and their reported composite z-score.
Assay: anti-His antibody binders, primary screen, artefact control for SMM control protein annotation, biochemical, small-molecule microarray, 635 nm fluorescence (AID 1128);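 also: score merges feature fluorescence with signal-to-noise for each printed compound spot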
Conditions: anti-His Alexa647 antibody binding, higher = more signal

| molecule | composite z-score |
| --- | --- |
| C=CC[C@]1(C(=O)N2CCCCC2)N=C(c2ccc(OCCCO)cc2)O[C@H]1c1ccccc1 | 2.2 |
| O=C1O[C@H](c2ccccc2)[C@H](c2ccccc2)N2[C@H]1[C@@H](C(=O)Nc1nc3ccccc3s1)[C@]1(C(=O)Nc3ccc(C#CCCO)cc31)[C@H]2c1ccc(OCCO)cc1 | 1.18 |
| C=CC[C@]12N=C(c3ccc(OCCCO)cc3)O[C@H]1c1ccccc1N(Cc1ccccc1)C2=O | 1.74 |
| COC(=O)c1c(CC[C@@H](CO)NC(=O)N[C@H](Cn2cc(Cc3ccccc3)nn2)C(C)C)oc(C(C)=O)c1C(=O)OC | 0.583 |
| CN1C(=O)C2C=CC(C(O)C3CCCCC3)N(Nc3ccc([N+](=O)[O-])cc3[N+](=O)[O-])C2C1=O (stereo not drawn) | 1.08 |
| C=C(C)C1C(=C)CN([C@H](CO)c2ccccc2)C1=O (stereo partly drawn) | 0.0639 |
| CC1CC/C=C\[C@H]2OC34C=CCN(Cn5nnc6ccccc65)C(=O)[C@H]3N(C(CO)C(C)C)C(=O)[C@@H]4C2C(=O)O1 (stereo partly drawn) | 1.63 |
| C#CCN(CC1=CCCCC1)[C@H](c1ccccc1Br)[C@@H](O)Cc1ccccc1 | 0.646 |

---

We begin with a simple list: items and their reported z-score.
Assay: modulators of HCV replicon luciferase signal, primary screen, HCV replication inhibitor project, Huh7 cells, luciferase reporter (AID 1109);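 also: huh7 hepatoma cells harbouring a luciferase neomycin HCV replicon reporter; luciferase luminescence as measure of HCV replicon replication; test concentration not given here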
Details: 48 h, higher = more signal

| compound | z-score |
| --- | --- |
| [N-]=[N+]=NCc1ccccc1[C@H]1OC(c2ccc(OCCCO)cc2)=N[C@@]1(Cc1ccccc1)C(=O)NCc1ccccc1 | -2.19 |
| COc1ccc([Si](C)(C)[C@@H]2[C@@H](CCO)O[C@]3(C(=O)N(Cc4ccc(N5C(=O)COc6ccccc65)cc4)c4ccccc43)[C@H]2C)cc1 | -4.99 |
| CC(C)[C@@H](CO)NC(=O)[C@H]1[C@@H](c2ccccc2)N(c2ccccc2)O[C@@H]1C | 0.0505 |
| O=C1C2C=CC(C(O)C3CCCCC3)N(Nc3ccc([N+](=O)[O-])cc3)C2C(=O)N1c1ccccc1 (centres undefined) | -0.057 |
| C=CCC(OC(C)=O)[C@@H]1[C@@H](N(Cc2cccc3ccccc23)C(=O)c2ccc(-c3ccccc3)cc2)c2cc(OCCCO)ccc2N1C(=O)Cc1ccc(OC)cc1 (some centres undefined) | -1.36 |
| CC1CC/C=C\[C@H]2OC34C=CCN(Cn5nnc6ccccc65)C(=O)[C@H]3N(C(CO)C(C)C)C(=O)[C@@H]4C2C(=O)O1 (some centres undefined) | 0.238 |
| C=CCN(Cc1ccccc1)C(=O)C(c1cccs1)N(CCOCCO)C(=O)/C=C\C(=O)O (centres undefined) | 0.448 |
| COc1ccc(C(O)C2C=CC3C(=O)NC(=O)C3N2Nc2ccccn2)c2ccccc12 (centres undefined) | 0.307 |
| CC(C)C[C@H]1NC(=O)[C@@]23C(=O)N[C@@H](Cc4ccccc4)C2[C@H](C)[C@@]2(C)O[C@H]2C3/C=C/C/C=C\CNC(=O)[C@H](Cc2ccccc2)NC1=O (some centres undefined) | -1.32 |
| O=C1O[C@H](c2ccccc2)[C@H](c2ccccc2)N2[C@H]1[C@@H](C(=O)O)[C@]1(C(=O)Nc3ccc(C#CCCO)cc31)[C@H]2c1ccc(O)cc1 | 0.101 |
| COC(=O)C(CC#Cc1ccc2c(c1)[C@]1(C(=O)N2)[C@H](c2ccc(O)cc2)N2[C@H](c3ccccc3)[C@H](c3ccccc3)OC(=O)[C@H]2[C@@H]1C(=O)Nc1nc2ccccc2s1)C(=O)OC | -0.322 |
| CCN(CC)c1ccc(N2CC=CC34O[C@@H]5/C=C\CCC(C)OC(=O)C5[C@H]3C(=O)N(C(CO)C(C)C)[C@@H]4C2=O)cc1 (some centres undefined) | -0.668 |
| [N-]=[N+]=NCc1ccccc1C[C@]1(C(=O)O)N=C(c2ccc(OCCCO)cc2)O[C@H]1c1ccccc1N=[N+]=[N-] | -1.11 |
| COc1ccc(C(=O)Nc2ccc(CN3C(=O)[C@@]4(O[C@@H](CCO)[C@H]([Si](C)(C)c5ccc(OC)cc5)[C@H]4C)c4ccccc43)cc2)cc1 | -5.15 |
